The values you see were collected from patent US20210238260A1.

# tested-on: T1, Factor VIIIa (recombinant FVIII, Kogenate FS, activated with alpha-thrombin) (UniProt P00451 20-2351)
# T1 construct: also called FVIIIa
# T1 sequence (looked up): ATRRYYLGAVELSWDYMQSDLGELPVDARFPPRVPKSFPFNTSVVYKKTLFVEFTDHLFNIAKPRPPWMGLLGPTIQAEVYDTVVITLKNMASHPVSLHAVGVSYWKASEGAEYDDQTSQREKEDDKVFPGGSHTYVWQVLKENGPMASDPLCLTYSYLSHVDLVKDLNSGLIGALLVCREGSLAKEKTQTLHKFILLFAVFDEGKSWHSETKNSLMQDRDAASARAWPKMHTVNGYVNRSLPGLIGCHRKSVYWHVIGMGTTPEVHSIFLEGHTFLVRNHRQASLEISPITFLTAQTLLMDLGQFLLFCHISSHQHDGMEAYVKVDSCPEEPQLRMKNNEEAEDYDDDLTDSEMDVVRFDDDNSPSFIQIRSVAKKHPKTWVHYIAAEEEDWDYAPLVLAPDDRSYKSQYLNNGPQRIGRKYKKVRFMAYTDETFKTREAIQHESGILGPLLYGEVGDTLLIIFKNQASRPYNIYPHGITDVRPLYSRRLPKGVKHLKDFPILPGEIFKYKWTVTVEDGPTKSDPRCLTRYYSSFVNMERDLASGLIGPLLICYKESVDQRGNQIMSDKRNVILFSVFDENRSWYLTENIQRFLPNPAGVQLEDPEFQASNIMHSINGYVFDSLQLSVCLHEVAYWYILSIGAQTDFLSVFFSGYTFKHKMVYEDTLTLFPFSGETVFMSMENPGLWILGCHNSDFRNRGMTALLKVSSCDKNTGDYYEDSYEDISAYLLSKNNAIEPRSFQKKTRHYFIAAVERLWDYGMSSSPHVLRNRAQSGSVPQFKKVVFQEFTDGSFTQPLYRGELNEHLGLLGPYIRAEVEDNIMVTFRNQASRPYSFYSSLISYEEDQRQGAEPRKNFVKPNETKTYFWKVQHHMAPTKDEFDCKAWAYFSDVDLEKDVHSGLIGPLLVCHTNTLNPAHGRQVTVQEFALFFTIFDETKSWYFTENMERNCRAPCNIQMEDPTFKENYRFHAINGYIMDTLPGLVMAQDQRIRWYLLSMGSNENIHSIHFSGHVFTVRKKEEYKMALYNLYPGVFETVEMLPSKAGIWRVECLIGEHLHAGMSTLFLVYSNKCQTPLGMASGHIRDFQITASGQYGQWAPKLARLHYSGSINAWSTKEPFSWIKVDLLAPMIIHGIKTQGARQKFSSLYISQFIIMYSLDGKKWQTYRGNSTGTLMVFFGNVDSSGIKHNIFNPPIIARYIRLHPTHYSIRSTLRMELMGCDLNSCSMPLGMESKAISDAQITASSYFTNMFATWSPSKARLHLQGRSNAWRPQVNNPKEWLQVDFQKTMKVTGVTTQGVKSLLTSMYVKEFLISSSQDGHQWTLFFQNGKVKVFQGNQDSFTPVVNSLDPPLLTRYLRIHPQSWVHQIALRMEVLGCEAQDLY
# assay-explanation: ratio of KD-app of wild-type FIXa (Catalyst Biosciences WT, SEQ ID NO:3) to that of the variant, same Xase assay
KD-WT/KD-mut for assorted binders
measurement-name: KD-WT/KD-mut

{"binder": "FIXa-R318Y/T343R/R403E/E410N (enzyme, also called R150Y/T175R/R233E/E240N (chymotrypsin numbering)) chain 1: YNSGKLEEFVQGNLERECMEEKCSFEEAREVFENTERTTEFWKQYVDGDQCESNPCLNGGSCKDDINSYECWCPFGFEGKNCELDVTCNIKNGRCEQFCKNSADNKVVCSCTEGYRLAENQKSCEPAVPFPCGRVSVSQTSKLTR chain 2: VVGGEDAKPGQFPWQVVLNGKVDAFCGGSIVNEKWIVTAAHCVETGVKITVVAGEHNIEETEHTEQKRNVIRIIPHHNYNAAINKYNHDIALLELDEPLVLNSYVTPICIADKEYTNIFLKFGSGYVSGWGRVFHKGYSALVLQYLRVPLVDRATCLRSTKFRIYNNMFCAGFHEGGRDSCQGDSGGPHVTEVEGTSFLTGIISWGEECAMKGKYGIYTKVSEYVNWIKNKTKLT", "test-value": 1.1}
{"binder": "FIXa-Y155F/K247N/N249S/R338E/E410N (enzyme) chain 1: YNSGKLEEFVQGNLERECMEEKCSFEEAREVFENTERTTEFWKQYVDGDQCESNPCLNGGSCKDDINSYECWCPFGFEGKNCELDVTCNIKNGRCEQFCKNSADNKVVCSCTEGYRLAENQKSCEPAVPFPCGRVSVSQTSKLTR chain 2: VVGGEDAKPGQFPWQVVLNGKVDAFCGGSIVNEKWIVTAAHCVETGVKITVVAGEHNIEETEHTEQNRSVIRIIPHHNYNAAINKYNHDIALLELDEPLVLNSYVTPICIADKEYTNIFLKFGSGYVSGWGRVFHKGRSALVLQYLRVPLVDRATCLESTKFTIYNNMFCAGFHEGGRDSCQGDSGGPHVTEVEGTSFLTGIISWGEECAMKGKYGIYTKVSRYVNWIKNKTKLT", "test-value": 3.8}
{"binder": "FIXa-Y155F/R318Y/T343R/E410N (enzyme) chain 1: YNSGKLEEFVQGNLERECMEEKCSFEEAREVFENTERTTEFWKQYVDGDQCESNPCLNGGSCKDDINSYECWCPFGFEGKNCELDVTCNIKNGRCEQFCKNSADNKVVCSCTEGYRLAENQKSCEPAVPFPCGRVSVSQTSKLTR chain 2: VVGGEDAKPGQFPWQVVLNGKVDAFCGGSIVNEKWIVTAAHCVETGVKITVVAGEHNIEETEHTEQKRNVIRIIPHHNYNAAINKYNHDIALLELDEPLVLNSYVTPICIADKEYTNIFLKFGSGYVSGWGRVFHKGYSALVLQYLRVPLVDRATCLRSTKFRIYNNMFCAGFHEGGRDSCQGDSGGPHVTEVEGTSFLTGIISWGEECAMKGKYGIYTKVSRYVNWIKNKTKLT", "test-value": 2.5}
{"binder": "FIXa-Y155F/K247N/N249S/R318Y/R338E/T343R/E410N (enzyme) chain 1: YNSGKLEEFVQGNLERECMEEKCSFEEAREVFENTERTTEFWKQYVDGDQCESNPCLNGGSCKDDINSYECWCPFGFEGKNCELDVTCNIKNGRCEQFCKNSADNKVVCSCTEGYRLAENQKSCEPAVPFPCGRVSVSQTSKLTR chain 2: VVGGEDAKPGQFPWQVVLNGKVDAFCGGSIVNEKWIVTAAHCVETGVKITVVAGEHNIEETEHTEQNRSVIRIIPHHNYNAAINKYNHDIALLELDEPLVLNSYVTPICIADKEYTNIFLKFGSGYVSGWGRVFHKGYSALVLQYLRVPLVDRATCLESTKFRIYNNMFCAGFHEGGRDSCQGDSGGPHVTEVEGTSFLTGIISWGEECAMKGKYGIYTKVSRYVNWIKNKTKLT", "test-value": 6.9}
{"binder": "FIXa-Y155F/K247N/N249S/R318Y/R338E/T343R/R403E/E410N (enzyme) chain 1: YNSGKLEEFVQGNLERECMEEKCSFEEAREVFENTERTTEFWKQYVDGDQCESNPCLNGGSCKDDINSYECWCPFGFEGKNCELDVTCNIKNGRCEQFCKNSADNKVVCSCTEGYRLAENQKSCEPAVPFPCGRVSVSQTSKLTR chain 2: VVGGEDAKPGQFPWQVVLNGKVDAFCGGSIVNEKWIVTAAHCVETGVKITVVAGEHNIEETEHTEQNRSVIRIIPHHNYNAAINKYNHDIALLELDEPLVLNSYVTPICIADKEYTNIFLKFGSGYVSGWGRVFHKGYSALVLQYLRVPLVDRATCLESTKFRIYNNMFCAGFHEGGRDSCQGDSGGPHVTEVEGTSFLTGIISWGEECAMKGKYGIYTKVSEYVNWIKNKTKLT", "test-value": 6.3}
{"binder": "FIXa-R318Y/R338E/T343R/R403E/E410S (enzyme, also called R150Y/R170E/T175R/R233E/E240S (chymotrypsin numbering)) chain 1: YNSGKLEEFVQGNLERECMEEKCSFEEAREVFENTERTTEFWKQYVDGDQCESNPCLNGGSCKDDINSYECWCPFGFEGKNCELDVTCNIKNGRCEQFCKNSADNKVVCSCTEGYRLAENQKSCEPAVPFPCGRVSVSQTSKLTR chain 2: VVGGEDAKPGQFPWQVVLNGKVDAFCGGSIVNEKWIVTAAHCVETGVKITVVAGEHNIEETEHTEQKRNVIRIIPHHNYNAAINKYNHDIALLELDEPLVLNSYVTPICIADKEYTNIFLKFGSGYVSGWGRVFHKGYSALVLQYLRVPLVDRATCLESTKFRIYNNMFCAGFHEGGRDSCQGDSGGPHVTEVEGTSFLTGIISWGEECAMKGKYGIYTKVSEYVNWIKSKTKLT", "test-value": 4.1}
{"binder": "FIXa-Y155F/K247N/N249S/R338E/T343R (enzyme) chain 1: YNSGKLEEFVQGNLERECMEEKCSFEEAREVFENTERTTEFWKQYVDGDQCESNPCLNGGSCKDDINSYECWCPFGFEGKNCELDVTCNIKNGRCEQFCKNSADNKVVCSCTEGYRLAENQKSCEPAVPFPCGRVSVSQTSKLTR chain 2: VVGGEDAKPGQFPWQVVLNGKVDAFCGGSIVNEKWIVTAAHCVETGVKITVVAGEHNIEETEHTEQNRSVIRIIPHHNYNAAINKYNHDIALLELDEPLVLNSYVTPICIADKEYTNIFLKFGSGYVSGWGRVFHKGRSALVLQYLRVPLVDRATCLESTKFRIYNNMFCAGFHEGGRDSCQGDSGGPHVTEVEGTSFLTGIISWGEECAMKGKYGIYTKVSRYVNWIKEKTKLT", "test-value": 6.2}
